- TARGET: UniProt:P00742
- Sequence (P00742 41-179 limits assumed): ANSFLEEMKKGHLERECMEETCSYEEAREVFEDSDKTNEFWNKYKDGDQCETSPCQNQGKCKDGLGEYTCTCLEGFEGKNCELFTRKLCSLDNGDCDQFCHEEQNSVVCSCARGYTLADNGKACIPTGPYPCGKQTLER
- Sequence (P00742 235-488 limits assumed): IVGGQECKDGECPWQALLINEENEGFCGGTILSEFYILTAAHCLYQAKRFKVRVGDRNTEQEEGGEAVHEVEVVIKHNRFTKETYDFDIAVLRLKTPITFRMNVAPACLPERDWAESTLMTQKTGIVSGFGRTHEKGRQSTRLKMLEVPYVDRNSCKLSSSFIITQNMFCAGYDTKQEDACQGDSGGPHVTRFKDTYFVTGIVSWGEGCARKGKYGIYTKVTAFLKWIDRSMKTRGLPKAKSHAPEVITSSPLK
RECORDED_METRIC: Ki

Here are 5 compounds together with their reported answers.
Cc1c(F)c(Oc2cccc(C(=N)N)c2)nc(OC2CCNC2)c1F (centres undefined) :: > 5000 nM
Cc1c(F)c(NCCN(C)C)nc(Oc2cccc(C(=N)N)c2)c1F :: > 5000 nM
N=C(N)c1ccc(/C=C2/CCCC/C(=C/c3ccc(C(=N)N)cc3)C2=O)cc1 :: 13 nM
CCCOCCNc1nc(Oc2cccc(C(=N)N)c2)c(F)c(C)c1F :: > 5000 nM
Cc1c(F)c(NCCCN2CCCC2=O)nc(Oc2cccc(C(=N)N)c2)c1F :: > 5000 nM

INPUT: # query: Ki of entry `Cc1c(F)c(Oc2cccc(C(=N)N)c2)nc(N2CCC(C)(c3ccccc3)CC2)c1F`
OUTPUT: 560 nM

INPUT: # query: Ki of entry `N=C(N)c1ccccc1`
OUTPUT: 410 nM

INPUT: # query: Ki of entry `Cc1c(F)c(Oc2cccc(C(=N)N)c2)nc(N2CCC[C@H]2CO)c1F`
OUTPUT: > 5000 nM

INPUT: # query: Ki of entry `Cc1cccc(C)c1N1CCN(c2nc(Oc3cccc(C(=N)N)c3)c(F)c(C)c2F)CC1`
OUTPUT: > 5000 nM
